// compounds with reported IC50 on BRD4 (Homo sapiens (Human), UniProt O60885), multi-publication
Express your answer as a number followed by its unit.

Example results:
CCc1nn(C(=O)N(C)C)c2c1C(c1ccc(Cl)cc1)N(c1cc(C)c(=O)n(C)c1)C2=O (stereo not shown)
130 nM
Cc1cc(N2C(=O)c3nc(C4CC4)n(C(C)C)c3C2c2ccc(Cl)cc2)cn(C)c1=O (stereo not shown)
117 nM
Cc1cnc(Nc2ccc(C3CCN(C)CC3)cc2)nc1Nc1ccc(Cl)c(NS(=O)(=O)C(C)(C)C)c1
143 nM

Turning now to a further record.
## Task Form field - read-out: IC50; system: BRD4 (Homo sapiens (Human), UniProt O60885); submitted item: `Cc1c2c(nn1C1CC1)C(=O)N(c1cc(Cl)c(=O)n(C)c1)[C@@H]2c1ccc(Cl)cc1`
## Result 73 nM

* * *

// compounds with reported pIC50 on BRD4 (Homo sapiens (Human)), multi-publication
pIC50 (log units): -log10 of the concentration in mol/L.

Example results:
COc1ncccc1-c1nc2c([nH]1)[C@@H](c1ccc(Cl)cc1)N(c1cc(C)c3nnc(C)n3c1)C2=O
7.40
COc1cc(F)ccc1-c1nc2c([nH]1)C(c1ccc(Cl)cc1)N(c1cc(C)c3nnc(C)n3c1)C2=O (stereo not drawn)
7.07
Cc1nn(C(C)C)c2c1C(c1ccc(Cl)cc1)N(c1cc(Cl)c(=O)n(C)c1)C2=O (stereo not drawn)
6.92

## Task Form field - read-out: pIC50; system: BRD4 (Homo sapiens (Human)); submitted item: `Cc1cc(N2C(=O)c3nc(C4=CCOCC4)[nH]c3[C@H]2c2ccc(Cl)cc2)cn2c(C)nnc12`
## Result 7.46

## Task Form field - read-out: pIC50; system: BRD4 (Homo sapiens (Human)); submitted item: `Cn1cc2c(n1)C(=O)N(c1cc(Cl)c(=O)n(C)c1)[C@@H]2c1ccc(Cl)cc1`
## Result 6.89

## Task Form field - read-out: pIC50; system: BRD4 (Homo sapiens (Human)); submitted item: COc1cc(N2C(=O)c3nc(C4=CCOCC4)n(C(C)C)c3C2c2ccc(Cl)cc2)cc2c1nnn2C (stereo not drawn)
## Result 7.50

## Task Form field - read-out: pIC50; system: BRD4 (Homo sapiens (Human)); submitted item: COc1ccc(-c2nc3c(n2C)C(c2ccc(Cl)cc2)N(c2cc(OC)c4nnc(C)n4c2)C3=O)cn1 (stereo not drawn)
## Result 7.25

## Task Form field - read-out: pIC50; system: BRD4 (Homo sapiens (Human)); submitted item: Cc1cn(C2CN(C)C2)c2c1C(=O)N(c1cc(C)c3nnn(C)c3n1)C2c1ccc(Cl)cc1 (stereo not drawn)
## Result 7.80

## Task Form field - read-out: pIC50; system: BRD4 (Homo sapiens (Human)); submitted item: COc1ncccc1-c1nc2c(n1C(C)C)C(c1ccc(Cl)cc1)N(c1cc(OC)c3nnn(C)c3c1)C2=O (racemic)
## Result 7.49

## Task Form field - read-out: pIC50; system: BRD4 (Homo sapiens (Human)); submitted item: Cc1cc(N2C(=O)c3c(NC(=O)CN(C)C)cn(C)c3C2c2ccc(Cl)cc2)cn2c(C(F)F)nnc12 (stereo not drawn)
## Result 7.66

## Task Form field - read-out: pIC50; system: BRD4 (Homo sapiens (Human)); submitted item: CNC(=O)c1cn(C)c2c1C(=O)N(c1cc(C)c3nnc(C(F)F)n3c1)C2c1ccc(Cl)cc1 (stereo not drawn)
## Result 7.80

## Task Form field - read-out: pIC50; system: BRD4 (Homo sapiens (Human)); submitted item: Cc1nn(C2CC2)c2c1C(c1ccc(Cl)cc1F)N(c1cc(C)c(=O)n(C)c1)C2=O (stereo not drawn)
## Result 7.02

## Task Form field - read-out: pIC50; system: BRD4 (Homo sapiens (Human)); submitted item: CNC(=O)n1nc2c(c1C)C(c1ccc(Cl)cc1)N(c1cc(C)c(=O)n(C)c1)C2=O (stereo not drawn)
## Result 6.82

## Task Form field - read-out: pIC50; system: BRD4 (Homo sapiens (Human)); submitted item: `Cc1cc(N2C(=O)c3nc(C4=CCOCC4)[nH]c3[C@H]2c2ccc(Cl)cc2)nc2c1nnn2C`
## Result 7.72

## Task Form field - read-out: pIC50; system: BRD4 (Homo sapiens (Human)); submitted item: Cc1cc(N2C(=O)c3nc(C)n(C4COC4)c3C2c2ccc(Cl)cc2)cc2c1nnn2C (stereo not drawn)
## Result 7.15

## Task Form field - read-out: pIC50; system: BRD4 (Homo sapiens (Human)); submitted item: COCc1nn(C2CC2)c2c1C(c1ccc(Cl)cc1)N(c1cc(C)c3nnc(C)n3c1)C2=O (stereo not drawn)
## Result 7.38

## Task Form field - read-out: pIC50; system: BRD4 (Homo sapiens (Human)); submitted item: `CCn1c(C)nc2c1C(=O)N(c1cc(C)c3nnn(C)c3c1)[C@@H]2c1ccc(Cl)cc1`
## Result 7.72

## Task Form field - read-out: pIC50; system: BRD4 (Homo sapiens (Human)); submitted item: CNC(=O)n1cc(C)c2c1C(c1ccc(Cl)cc1)N(c1cc(C)c3nnc(C)n3c1)C2=O (stereo not drawn)
## Result 7.62

## Task Form field - read-out: pIC50; system: BRD4 (Homo sapiens (Human)); submitted item: CCCn1c(-c2cc(OC)ncc2F)nc2c1C(=O)N(c1cc(C)c(=O)n(C)c1)C2c1ccc(Cl)cc1 (stereo not drawn)
## Result 6.82

## Task Form field - read-out: pIC50; system: BRD4 (Homo sapiens (Human)); submitted item: `COc1ncccc1-c1nc2c([nH]1)[C@@H](c1ccc(Cl)cc1)N(c1cc(C)c3nnn(C)c3n1)C2=O`
## Result 7.89

* * *

pIC50: −log10 of the molar value.
// molecules with reported pIC50 on BRD4 (Homo sapiens (Human)), multi-publication
Record Yes whenever pIC50 is at 7 or higher; record No when lower.

CNC(=O)n1nc(C)c2c1C(=O)N(c1cc(C)c(=O)n(C)c1)C2c1ccc(Cl)cc1 (stereo not shown)
No
Cc1cc(N2C(=O)c3nc(C4CCCC4)n(C(C)C)c3C2c2ccc(Cl)cc2)cn(C)c1=O (stereo not shown)
Yes
COc1ccc(-c2nc3c(n2C(C)C)C(c2ccc(Cl)cc2)N(c2cc(C)c4nnn(C)c4c2)C3=O)cn1 (stereo not shown)
Yes

## Task Could you please find out whether COc1ccc(-c2nc3c(n2C(C)C)C(c2ccc(Cl)cc2)N(c2cc(C)c4nnc(C)n4c2)C3=O)cn1 (stereo not shown) has pIC50 that meets 7 or exceeds it?
## Result Yes

## Task Could you please find out whether Cc1nn(C2CNC2)c2c1C(c1ccc(Cl)cc1)N(c1cc(C)c(=O)n(C)c1)C2=O (stereo not shown) has pIC50 that meets 7 or exceeds it?
## Result No

## Task Could you please find out whether Cc1cc(N2C(=O)c3nc(C4CCOC4)n(C(C)C)c3C2c2ccc(Cl)cc2)cc2c1nnn2C (stereo not shown) has pIC50 that meets 7 or exceeds it?
## Result Yes

## Task Could you please find out whether Cc1c2c(nn1C)C(=O)N(c1ccc3nnc(C)n3c1)C2c1ccc(Cl)cc1 (stereo not shown) has pIC50 that meets 7 or exceeds it?
## Result No

## Task Could you please find out whether `COc1ncc(-c2nc3c(n2C(C)C)[C@@H](c2ccc(Cl)cc2)N(c2cc(C)c4nnc(C(F)F)n4c2)C3=O)c(OC)n1` has pIC50 that meets 7 or exceeds it?
## Result Yes

## Task Could you please find out whether Cc1cc(N2C(=O)c3nc(C4CCOCC4)n(C(C)C)c3C2c2ccc(Cl)cc2)cc2c1nnn2C (stereo not shown) has pIC50 that meets 7 or exceeds it?
## Result Yes

## Task Could you please find out whether Cc1cc(N2C(=O)c3ccn(C)c3C2c2ccc(C#N)cc2)cn(C)c1=O (stereo not shown) has pIC50 that meets 7 or exceeds it?
## Result No

* * *

// compounds with reported IC50 on BRD4 (Homo sapiens (Human)), multi-publication

CCOC(=O)n1c(C2=CCOCC2)c(C)c2c1C(c1ccc(Cl)cc1)N(c1cc(C)c3nnc(C)n3c1)C2=O (stereo not drawn)
< 11 nM

## Task Form field - read-out: IC50; system: BRD4 (Homo sapiens (Human)); submitted item: Cc1cc(N2C(=O)c3nc(C4CCOCC4)n(C(C)C)c3C2c2ccc(Cl)cc2)cn2c(C)nnc12 (stereo not drawn)
## Result < 11 nM

## Task Form field - read-out: IC50; system: BRD4 (Homo sapiens (Human)); submitted item: `C=Cc1cccc(N2CCn3nnc(C)c3-c3ccccc32)c1`
## Result < 100 nM

## Task Form field - read-out: IC50; system: BRD4 (Homo sapiens (Human)); submitted item: Cc1nn(C2CC2)c2c1C(c1ccc(Cl)cc1)N(c1cc(C)c3nnc(C(F)F)n3n1)C2=O (stereo not drawn)
## Result < 11 nM

## Task Form field - read-out: IC50; system: BRD4 (Homo sapiens (Human)); submitted item: `Cn1cc2c(n1)C(=O)N(c1cc(Cl)c(=O)n(C)c1)[C@H]2c1ccc(Cl)cc1`
## Result > 37000 nM

## Task Form field - read-out: IC50; system: BRD4 (Homo sapiens (Human)); submitted item: `Cc1nnn2c1-c1ccc(C(=O)N[C@@H](C)c3ccc(F)cc3)cc1N(c1ccccc1)CC2`
## Result < 100 nM

## Task Form field - read-out: IC50; system: BRD4 (Homo sapiens (Human)); submitted item: Cc1cc(N2C(=O)c3nc(C4=CCOCC4)n(C(C)C)c3C2c2ccc(Cl)cc2)nn2c(C)nnc12 (stereo not drawn)
## Result 26.5 nM

## Task Form field - read-out: IC50; system: BRD4 (Homo sapiens (Human)); submitted item: CNC(=O)c1cn(C)c2c1C(=O)N(c1cc(C)c3nnn(C)c3c1)C2c1ccc(Cl)cc1 (stereo not drawn)
## Result < 11 nM

## Task Form field - read-out: IC50; system: BRD4 (Homo sapiens (Human)); submitted item: `Cc1nnn2c1-c1ccc(C(=O)NO)cc1N(c1ccc(Cl)cc1)CC2`
## Result < 100 nM
